System: M14 melanoma
Assay: NCI-60 one-dose screen, 48 h
Settings: 10 µM unless noted
About 83,000 compounds went through this panel and 20% of them were active in at least one assay; those are over-represented in the sample as a whole. Active and inactive are the calls of the source. How the source made its calls: active means growth percent below 10; inactive means the rest.
Assign a class; possible classes are YES (active), NO (inactive)

Below, 5 compounds whose answers are already recorded.
O=C(Nc1ccccc1)P(=O)(O)c1ccccc1 : NO
Cc1ccc(C2=Nc3c(ccc4c(C)c(C)c(=O)oc34)OC2)cc1 : NO
c1ccc(CN=C(NCc2ccccc2)NCc2ccccc2)cc1 : NO
Cc1cc(Br)c(C)cc1Br : NO
CCNCCCn1c2c(c3ccc(F)cc3c1=O)C(=O)c1cc(OC)cnc1-2 : YES

Qu. Hi team, can someone confirm the assay call for Cc1cccc2nnc(-c3ccccc3)n12 ?
Ans. NO

Qu. Hi team, can someone confirm the assay call for C[C@]12CC[C@H](O)CC1=CC[C@@H]1[C@@H]2CC[C@]2(C)C(c3cccnc3)=CC[C@@H]12 ?
Ans. NO

Qu. Hi team, can someone confirm the assay call for CCN1CCN(c2nc(NNC(=O)Cc3ccccc3)nc(N3CCN(C(c4ccccc4)c4ccccc4)CC3)n2)CC1 ?
Ans. YES

Qu. Hi team, can someone confirm the assay call for O=C(Nc1nc2c(C(F)(F)F)cccc2s1)c1cc(Cl)ccc1O ?
Ans. YES

Qu. Hi team, can someone confirm the assay call for O=C(Nc1nc(-c2ccc(Cl)cc2)cs1)c1cc(-c2ccc(Br)cc2)nc2ccc(Cl)cc12 ?
Ans. YES

Qu. Hi team, can someone confirm the assay call for COc1ccc(CNC(=O)c2c(C)n([O-])c3ccc(OC)cc3[n+]2=O)cc1 ?
Ans. NO

Qu. Hi team, can someone confirm the assay call for CC(=O)N1N=C(c2ccc(Nc3nc(NCCO)nc(NCCO)n3)cc2)CC1c1ccc(Cl)cc1 (centres undefined) ?
Ans. NO

Qu. Hi team, can someone confirm the assay call for N#CC(C#N)C(C#N)C#N ?
Ans. NO

Qu. Hi team, can someone confirm the assay call for Oc1ccccc1/C=N/N1CCCCCC1 ?
Ans. NO

* * *

Test system: A498 renal
Assay: NCI-60 one-dose screen, 48 h
Conditions: 10 µM unless noted
About 83,000 compounds went through this panel and 20% of them were active in at least one assay; those are over-represented in the sample as a whole. Activity calls are given as the source filed them. Rule for the calls: active = growth percent below 10; inactive = the rest.
Assign a class; possible classes are label 1 = active, label 0 = inactive

Below, 5 compounds whose answers are already recorded.
COc1cc(/C=C/c2cc(/C=C/c3ccc(O)c(OC)c3)n(C(=O)c3ccc(Cl)cc3)n2)ccc1O : label 1
CCN1CC2=C(Nc3nc(SC)[nH]c(=O)c3C2c2cc(OC)c(OC)c(OC)c2)/C(=C/c2cc(OC)c(OC)c(OC)c2)C1 (stereo not given) : label 0
O=C(CNC(=O)c1cccc2ccccc12)Nc1ccccc1Oc1cccc(O)c1 : label 0
COc1ccc(-c2ccc(O)c(C(=O)/C=C/c3cc(OC)c(OC)c(OC)c3)c2)cc1 : label 0
COc1cc(/C=C/C(=O)c2c(C)n([O-])c3ccccc3[n+]2=O)cc(OC)c1OC : label 0

Qu. Hi team, can someone confirm the assay call for CC1C(C)N(C(=O)CCl)c2ccccc2N1C(=O)CCl (stereo not given) ?
Ans. label 1

Qu. Hi team, can someone confirm the assay call for Cc1cc(=O)[nH]c(/C(=N/Nc2ccccc2)C(=O)c2ccc(Cl)cc2)n1 ?
Ans. label 0

Qu. Hi team, can someone confirm the assay call for Cc1csc(C#Cc2cncc(O)c2)n1 ?
Ans. label 0

Qu. Hi team, can someone confirm the assay call for CCCCCCCCN(CCO)CCCCCCCC ?
Ans. label 0

Qu. Hi team, can someone confirm the assay call for COCCOCCOCCOCCOc1ccc2c(c1)C(=O)c1nc3ncccc3c(=O)n1-2 ?
Ans. label 1

Measured values drawn from PubChem BioAssay (NCI) for this set.
